Field: DC50. Provide a value for each of the compounds that follow.
biological target: IRAK4 (Homo sapiens, UniProt Q9NWZ3); construct: endogenous in cells; host or cells: OCI-LY10; test: IRAK4 MSD Degradation in OCI-LY10; format: cell-based; conditions: OCI-LY10 cells, 24 hrs incubation, read-out: IRAK4 degradation in OCI-LY10 at 24 hrs: DC50
Sequence (Q9NWZ3 whole entry): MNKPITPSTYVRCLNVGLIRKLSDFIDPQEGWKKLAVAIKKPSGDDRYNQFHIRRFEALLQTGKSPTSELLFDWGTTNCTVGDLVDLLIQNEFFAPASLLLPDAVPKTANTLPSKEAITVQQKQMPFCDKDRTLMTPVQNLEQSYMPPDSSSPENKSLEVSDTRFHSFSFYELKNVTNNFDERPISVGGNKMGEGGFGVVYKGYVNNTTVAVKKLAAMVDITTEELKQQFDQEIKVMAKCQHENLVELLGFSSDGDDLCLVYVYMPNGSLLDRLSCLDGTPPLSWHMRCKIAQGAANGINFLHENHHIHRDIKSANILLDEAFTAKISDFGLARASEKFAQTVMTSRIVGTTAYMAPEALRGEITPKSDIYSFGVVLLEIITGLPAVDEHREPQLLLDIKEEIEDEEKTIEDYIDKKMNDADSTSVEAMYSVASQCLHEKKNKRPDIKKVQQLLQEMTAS

Measured DC50, COc1cc2nn([C@H]3CC[C@H](CN4CCO[C@@H](CCCNc5cccc6c5C(=O)N(C5CCC(=O)NC5=O)C6=O)C4)CC3)cc2cc1NC(=O)c1cccc(C(F)(F)F)n1 (stereo partly drawn) : 0.05 to 0.1 µM

Measured DC50, COc1cc2nn([C@H]3CC[C@H](CN(C)C4CCN(c5cccc6c5C(=O)N(C5CCC(=O)NC5=O)C6=O)CC4)CC3)cc2cc1NC(=O)c1cccc(C(F)(F)F)n1 (stereo partly drawn) : 0.1 to 0.5 µM

Measured DC50, COc1cc2nn([C@H]3CC[C@H](CN4CCC5(CC4)CC(CNc4ccc6c(c4)C(=O)N(C4CCC(=O)NC4=O)C6=O)C5)CC3)cc2cc1NC(=O)c1cccc(C(F)(F)F)n1 (stereo partly drawn) : 0.05 to 0.1 µM

====

molecular target: IRAK4 (Homo sapiens); construct: endogenous in cells; host or cells: OCI-LY10; test: IRAK4 MSD Degradation in OCI-LY10; assay type: cell-based; conditions: OCI-LY10 cells, 24 hrs incubation, read-out: IRAK4 degradation in OCI-LY10 at 24 hrs: DC50
Field: DC50. Provide a value for each of the molecules that follow.

Measured DC50, CN(C[C@H]1CC[C@H](n2cc3cc(NC(=O)c4cccc(C(F)(F)F)n4)c(C(C)(C)O)cc3n2)CC1)C1CCC2(CC1)CC(Nc1cccc3c1C(=O)N(C1CCC(=O)NC1=O)C3=O)C2 (some centres unmarked) [I-238] : < 50 nM

Measured DC50, CC(C)(O)c1cc2nn([C@H]3CC[C@H](CN4CCC5(CC4)CC(CNc4cccc6c4C(=O)N(C4CCC(=O)NC4=O)C6=O)C5)CC3)cc2cc1NC(=O)c1cccc(C(C)(C)F)n1 (some centres unmarked) [I-251] : 50 to 100 nM

Measured DC50, CN(C[C@H]1CC[C@H](n2cc3cc(NC(=O)c4cccc(C(C)(C)F)n4)c(C(C)(C)O)cc3n2)CC1)[C@H]1CC[C@H](Nc2cccc3c2C(=O)N(C2CCC(=O)NC2=O)C3=O)CC1 (some centres unmarked) [I-306] : < 50 nM

Measured DC50, CC(C)(O)c1cc2nn([C@H]3CC[C@H](CN4CCC(O[C@H]5C[C@H](Nc6cccc7c6C(=O)N(C6CCC(=O)NC6=O)C7=O)C5)CC4)CC3)cc2cc1NC(=O)c1cccc(C(C)(C)F)n1 (some centres unmarked) [I-234] : 50 to 100 nM

Measured DC50, COc1cc2nc([C@H]3CC[C@H](CN4CCC5(CC4)CC(Nc4cccc6c4C(=O)N(C4CCC(=O)NC4=O)C6=O)C5)CC3)oc2cc1NC(=O)c1cnn2cccnc12 (some centres unmarked) [I-321] : < 50 nM

====

Field: DC50. Provide a value for each of the compounds that follow.
target: IRAK4 (Homo sapiens, UniProt Q9NWZ3); construct: endogenous in cells; host or cells: OCI-LY10; assay: IRAK4 MSD Degradation in OCI-LY10; format: cell-based; conditions: OCI-LY10 cells, 4 hrs incubation, read-out: IRAK4 degradation in OCI-LY10 at 4 hrs: DC50

Measured DC50, CN(C[C@H]1CC[C@H](n2cc3cc(NC(=O)c4cccc(C(F)(F)F)n4)c(C(C)(C)O)cc3n2)CC1)C1CCC2(CC1)CC(Cc1cccc3c1n(C)c(=O)n3C1CCC(=O)NC1=O)C2 (stereo partly drawn) [I-74] : < 50 nM

Measured DC50, CN(C[C@H]1CC[C@H](n2ncc3cc(NC(=O)c4cccc(C(F)(F)F)n4)c(C(C)(C)O)cc32)CC1)C1CCN(Cc2cccc3c2n(C)c(=O)n3C2CCC(=O)NC2=O)CC1 (stereo partly drawn) [I-34] : 500 to 1000 nM

Measured DC50, Cn1c(=O)n(C2CCC(=O)NC2=O)c2cccc(NC3CC4(CCN(C[C@H]5CC[C@H](n6cc7cc(NC(=O)c8cccc(C(F)(F)F)n8)c(C(C)(C)O)cc7n6)CC5)CC4)C3)c21 (stereo partly drawn) [I-153] : < 50 nM
